Target: Plasmodium falciparum protein kinase 6 (PK6, PF3D7_1337100)
Test: PfPK6 kinase inhibitors, biochemical, TCAMS library (AID 1159586)
Conditions: recombinant PfPK6, Kinase-Glo ATP depletion luminescence
Potency and affinity values are given separately. Calls of active or inactive are those of the source. How the calls were made is not given here.
REPORTED METRIC: outcome

[[record]]
compound = "Clc1ccc(OC2CCC(Cn3ccnc3)(c3ccc(Cl)cc3Cl)CC2)c(Cl)c1 (centres undefined)"
reported_metric = "outcome"
result = "inactive"

[[record]]
compound = "O=C(Nc1ccc(Cn2ncc(N3CCCNCC3)c(Cl)c2=O)cc1)Nc1cc(F)cc(C(F)(F)F)c1"
reported_metric = "outcome"
result = "inactive"

[[record]]
compound = "O=S(=O)(c1ccccc1)n1ccc2cc(Nc3ncnc4cc(C#C[C@H]5CCCN5)sc34)ccc21"
reported_metric = "outcome"
result = "inactive"

[[record]]
compound = "O=C(Nc1cccc(CN2CCCN(CCc3ccccc3)CC2)c1)c1cc2ccccc2s1"
reported_metric = "outcome"
result = "inactive"

[[record]]
compound = "CCn1cnc2c(N3CCCCS3(=O)=O)cc(C(=O)N[C@@H](Cc3ccccc3)[C@H](O)CNC3CCOCC3)cc21"
reported_metric = "outcome"
result = "inactive"

[[record]]
compound = "CN(C)CCOc1ccc(-c2cc(-c3ccncc3)c(-c3ccc(Cl)c(O)c3)[nH]2)cc1"
reported_metric = "outcome"
result = "inactive"

[[record]]
compound = "Cc1ccc2sc(N3CCN(C(=O)c4ccc([N+](=O)[O-])o4)CC3)nc2c1C"
reported_metric = "outcome"
result = "inactive"

[[record]]
compound = "CCOc1c(CNCCCNc2cc(=O)c3ccccc3[nH]2)cc(I)cc1OC"
reported_metric = "outcome"
result = "inactive"

[[record]]
compound = "Cc1nc(N)nc(N)c1OCc1cccc2c1ccc1ccccc12"
reported_metric = "outcome"
result = "inactive"


###

Target: L-lactate dehydrogenase (Plasmodium falciparum (isolate CDC / Honduras)) (UniProt Q27743)
Sequence (Q27743 whole entry, looked up): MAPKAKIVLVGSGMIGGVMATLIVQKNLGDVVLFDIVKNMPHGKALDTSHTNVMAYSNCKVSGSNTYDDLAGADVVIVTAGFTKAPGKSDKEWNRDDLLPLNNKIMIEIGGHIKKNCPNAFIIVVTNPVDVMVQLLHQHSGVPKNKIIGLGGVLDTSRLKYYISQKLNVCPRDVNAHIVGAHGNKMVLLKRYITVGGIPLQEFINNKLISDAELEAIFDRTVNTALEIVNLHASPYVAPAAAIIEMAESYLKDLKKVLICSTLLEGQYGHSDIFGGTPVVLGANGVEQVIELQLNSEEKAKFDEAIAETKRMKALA
Assay: PfLDH activity inhibition – cell lysate, 3D7 strain, counter-screen for P. falciparum growth inhibition project (AID 2304);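 further: 0% = vehicle and 100% = reference inhibitor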
Details: P. falciparum 3D7 crude extract, LDH APAD/NBT absorbance; at 2 µM; active compounds read high
inhibition listing for selected molecules.
REPORTED METRIC: inhibition (%)

[[record]]
molecule = "O=C(NC1CCN(Cc2ccccc2)CC1)c1cc(C(=O)NC2CCN(Cc3ccccc3)CC2)cc(C(=O)NC2CCN(Cc3ccccc3)CC2)c1"
units_text = "%"
readout_number = 1

[[record]]
molecule = "N#Cc1ccc2c(c1)CCN(CCC1CCC(NC(=O)c3cc4ccc(Br)cc4[nH]3)CC1)C2 (centres undefined)"
units_text = "%"
readout_number = -13

[[record]]
molecule = "Cc1nn(-c2ccccc2)nc1C(=O)N(Cc1ccc(-c2ccc(CNCCc3ccc(S(C)(=O)=O)cc3)cn2)cc1)C(C)CN(C)C (centres undefined)"
units_text = "%"
readout_number = -8

[[record]]
molecule = "COc1ccc(-c2nc3nc4ccccc4cc3[nH]2)c(OCC(O)CNC(C)C)c1 (centres undefined)"
units_text = "%"
readout_number = -1

[[record]]
molecule = "CC1c2cccc(O)c2CCN1CCc1ccc(Cl)c(Cl)c1 (centres undefined)"
units_text = "%"
readout_number = -1

[[record]]
molecule = "CCNC(=O)c1ccc(-n2nc(C)cc2-c2ccccc2)cc1"
units_text = "%"
readout_number = 2

[[record]]
molecule = "Oc1ccc(CCNc2nc(NCCCOc3ccccc3-c3cccc(C(F)(F)F)c3)nc(N3CCNCC3)n2)cc1"
units_text = "%"
readout_number = -1

[[record]]
molecule = "CC(CN1CCN(C)CC1)C(=O)Nc1ccc(-c2cccc(-c3nc4ccc(F)cc4[nH]3)c2)cc1 (centres undefined)"
units_text = "%"
readout_number = 0

[[record]]
molecule = "COc1ccc2nccc(N3CCCN(CCNS(=O)(=O)c4ccc5c(c4)NC(=O)CS5)CC3)c2n1"
units_text = "%"
readout_number = -9


###

Assay: inhibition of 3D7 malaria parasite growth – strain 3D7 (AID 2306);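 further: 0% = DMSO wells and 100% = chloroquine plus artemisinin control wells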
Settings: P. falciparum 3D7 erythrocytic growth, LDH absorbance, 72 h; at 2 µM; active compounds read high
growth inhibition listing for selected molecules.
REPORTED METRIC: growth inhibition (%)

[[record]]
molecule = "CN1C[C@@H](c2ccccc2)c2cc(O)c(CN3CCCCC3)cc2C[C@H]1Cc1ccccc1"
reported_metric = "growth inhibition"
readout_number = 99

[[record]]
molecule = "COC1(C)Oc2ccc3cccc([N+](=O)[O-])c3c2C1=O (stereo not drawn)"
reported_metric = "growth inhibition"
readout_number = 98

[[record]]
molecule = "CCNc1cc(C(=O)N[C@@H](Cc2ccccc2)[C@H](O)CNC2C3CC4CC(C3)CC2C4)cc(N2CCCCS2(=O)=O)c1 (stereo partly drawn)"
reported_metric = "growth inhibition"
readout_number = 97

[[record]]
molecule = "OC1CCC(Nc2ccc3ncc(-c4ccc5ccccc5c4)n3n2)CC1 (stereo not drawn)"
reported_metric = "growth inhibition"
readout_number = 95

[[record]]
molecule = "CC[C@]1(C)C[C@@H](NC(=O)NC(=O)c2ccc(OC)cc2)[C@]2(C)[C@H](C)CC[C@]3(CCC(=O)[C@H]32)[C@@H](C)[C@@H]1OC(=O)NC(=O)c1ccc(OC)cc1"
reported_metric = "growth inhibition"
readout_number = 100

[[record]]
molecule = "CC(=O)Nc1ccc(CN(Cc2cccc(OC(C)(C)C)c2)Cc2ccc3c(c2)OCCO3)cc1"
reported_metric = "growth inhibition"
readout_number = 95

[[record]]
molecule = "COc1cc(NC(=O)c2sc(-c3ccc(Cl)cc3)cc2NC(=O)N2CCCC2)ccc1OCCN1CCCC1"
reported_metric = "growth inhibition"
readout_number = 101

[[record]]
molecule = "CN(C)CCN(C)Cc1ccc(-c2ccc3c(Nc4ccc(F)cc4Cl)ccnc3c2)o1"
reported_metric = "growth inhibition"
readout_number = 101

[[record]]
molecule = "O=C(/C=C/c1cccc(OC(F)(F)F)c1)NCCCCCN1CCC(c2c[nH]c3ccccc23)CC1"
reported_metric = "growth inhibition"
readout_number = 93

[[record]]
molecule = "CCOc1ccc2nc(C)cc(NN=Cc3cccc([N+](=O)[O-])c3)c2c1"
reported_metric = "growth inhibition"
readout_number = 101

[[record]]
molecule = "CCn1c(Sc2ccc(C#N)c([N+](=O)[O-])c2)nnc1-c1ccc(OC)cc1"
reported_metric = "growth inhibition"
readout_number = 98

[[record]]
molecule = "Cn1cncc1-c1cc2c(Nc3ccc(OCc4ccccc4)cc3)ncnc2cn1"
reported_metric = "growth inhibition"
readout_number = 99

[[record]]
molecule = "COc1cc2nc(NCCn3nc(C)cc3C)nc(NCCc3ccccc3)c2cc1OC"
reported_metric = "growth inhibition"
readout_number = 103

[[record]]
molecule = "CN1CCN(c2ccc(Nc3c4ccccc4nc4ccccc34)cc2)CC1"
reported_metric = "growth inhibition"
readout_number = 100

[[record]]
molecule = "COc1ccc(CNC2CCN(C)CC2)cc1-c1ccc(S(=O)(=O)NCc2cccnc2)s1"
reported_metric = "growth inhibition"
readout_number = 100

[[record]]
molecule = "COC1CCC(C(=O)Nc2ccc(-c3cccc(-c4nc5ccc(C(F)(F)F)cc5[nH]4)c3)cc2)CC1 (stereo not drawn)"
reported_metric = "growth inhibition"
readout_number = 85

[[record]]
molecule = "O=C(/C=C/c1ccc(Cl)cc1)NCCCCCN1CCC(C(=O)Nc2cccc(Cl)c2)CC1"
reported_metric = "growth inhibition"
readout_number = 97

[[record]]
molecule = "COc1c(C2CCN(CCCCNC(=O)c3ccc(-c4ccc(C#N)cc4)cc3)CC2)ccc2c1C(C)(C)CCC2(C)C"
reported_metric = "growth inhibition"
readout_number = 102


###

growth inhibition listing for selected compounds.
Assay: antimalarial activity against Dd2 strain (AID 2302);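 further: 0% = DMSO untreated growth and 100% = chloroquine plus artemisinin killed control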
Settings: P. falciparum Dd2 in RBCs, LDH growth readout, 72 h; at 2 µM; active compounds read high
REPORTED METRIC: growth inhibition (%)

[[record]]
compound = "Cc1[nH]c(C)c(-c2ccc(C(=O)c3ccc(Cl)cc3)cc2)c(=O)c1Br"
readout_number = 95

[[record]]
compound = "COc1ccc(C(=O)[C@H]2C[C@@H]2CN(C)CCC(O)c2ccc(Cl)c(Cl)c2)cc1 (stereo not given in full)"
readout_number = 86

[[record]]
compound = "Cn1nc(-c2ccc(NC(=O)Nc3cc(C(F)(F)F)ccc3F)cc2)c2cnc(NCCCCN3CCCC3)nc21"
readout_number = 74

[[record]]
compound = "O=C(c1cccc(-c2noc(C(F)(F)F)n2)c1)N1CCN(c2nsc3ccccc23)CC1"
readout_number = 81

[[record]]
compound = "O=C(/C=C/c1ccc(Cl)cc1Cl)NCCCCCN1CCC(c2c[nH]c3ccccc23)CC1"
readout_number = 9

[[record]]
compound = "Cc1cccc(C)c1CNc1ccnc2cc(C#N)ccc12"
readout_number = 99

[[record]]
compound = "Cc1cccc2[nH]c(-c3cccc(-c4ccc(NC(=O)C(=O)c5cccn5C)cc4)c3)nc12"
readout_number = 46

[[record]]
compound = "NC(N)=Nc1nc(CCCCCCCCc2csc(N=C(N)N)n2)cs1"
readout_number = 28

[[record]]
compound = "Oc1ccccc1CN1CCCC(COC(c2ccc(F)cc2)c2ccc(F)cc2)C1 (stereo not given)"
readout_number = 98

[[record]]
compound = "Oc1c(CN2CCC(Cc3ccccc3)CC2)cc(Cl)c2cccnc12"
readout_number = 94

